All figures here come from PubChem BioAssay (NCI).

Catalogue of compounds with associated TGI
Tested on: HOP-92 NSCLC
testMethodNotes: NCI tumour cell line growth inhibition, 48 h
Answer in µM, number only, no unit symbol.

smilesRecord	endpointUnit	valueObserved
Cc1c2ccncc2c(C)c2c1[nH]c1ccccc12	µM	2.59

Moving on to another compound below.
**Q:** Determine from records and report TGI for `Cn1ccnc1Sc1ccc(C=Nc2ccc3nc(SCC(=O)NC4CCCCC4)sc3c2)cc1[N+](=O)[O-]`
**A:** 32.5

###

System: OVCAR-8 ovarian
testMethodNotes: NCI tumour cell line growth inhibition, 48 h
Where a SMILES comes first, the peptide text is derived from it. The star is where a group is joined. Bn = c1ccc(C*)cc1
Entries and their measured TGI follow.

Some compounds with recorded TGI:
compound	TGI
Clc1ccc(Cl)c(SCCCN2CCNCC2)c1	46 µM
Clc1ccc(N=CNc2ccc(-c3nc4ccccc4o3)cc2)cc1	40.9 µM
COC(=O)c1cccc2cccc(C(=O)Nc3ccc(Cl)cc3)c12	> 100 µM
Oc1ccc(Br)cc1C=Nc1ccc(N=Cc2cc(Br)ccc2O)cc1	> 100 µM
COC(=O)C(CC(C)C)NC(=O)C(N)Cc1ccc(OCc2ccccc2)cc1 (stereo not given) (H-Tyr(Bn)-Leu-OMe; configuration not given here)	> 10 µM

**Q:** Fill in TGI for record `COc1ccc2c3c(Nc4ccc(/C(C)=N/O)cc4)[nH]c4ccccc4c-3c(N=O)c2c1`
**A:** 20.2 µM

###

Test system: K-562 leukemia
testMethodNotes: NCI tumour cell line growth inhibition, 48 h
experimentalReadout: GI50

molecule	testedTarget	valueObserved
CN1CCN(c2ccc(Nc3ncc4cc(C#N)c(=O)n(C5CCCC5)c4n3)cc2)CC1	K-562 leukemia	1250 nM
COC(C(=O)[C@@H](O)[C@@H](C)O)[C@@H]1Cc2cc3cc(O[C@H]4C[C@@H](O[C@H]5C[C@@H](O)[C@H](O)C(C)O5)[C@H](O)C(C)O4)c(C)c(O)c3c(O)c2C(=O)[C@H]1O[C@H]1C[C@@H](O[C@H]2C[C@@H](O[C@H]3C[C@@H](O)[C@H](OC)C(C)O3)[C@@H](O)C(C)O2)[C@H](O)C(C)O1 (some centres not stated)	K-562 leukemia	22.4 nM
CO/N=C(/C)c1cccc(Nc2cc(-c3ccccc3)nc3ccc(OC)cc23)c1	K-562 leukemia	2720 nM
CCCCCCCCCCN1CCC(N2CCCCC2)CC1	K-562 leukemia	1280 nM
Cc1cc(C)n(-c2nnc3n2N=C(c2ccc(-c4ccccc4)cc2)CS3)n1	K-562 leukemia	3580 nM

**Q:** Note GI50 for the molecule shown: `O=C1CSC(c2ccc(-c3nc4ccccc4s3)cc2)=N1`
**A:** 16700 nM

**Q:** Specify GI50 for `Cn1c(=O)c2c(ncn2CC(=O)Nc2ccc(-c3ccccc3)nn2)n(C)c1=O` and stop.
**A:** > 100000 nM

###

Test system: BT-549 breast
testMethodNotes: NCI tumour cell line growth inhibition, 48 h
As shown below, each of these molecules has a reported TGI value.

molecule	valueObserved
O=C(OCc1ccc2c(Cl)cc(Cl)c(O)c2n1)N1CCN(C(=O)c2cc3cc(F)ccc3[nH]2)CC1	> 24 µM
Nc1ccccc1SC1CC(=O)N(c2ccc(Cl)c(Cl)c2)C1=O (stereo not given)	> 100 µM
O=[N+]([O-])c1ccc(CSCc2ccc(Cl)cc2)cc1	> 100 µM
O=C(O)c1c2c(cc3c1CC1(Cc4ccccc4C1=O)C3)CCC2 (stereo not given)	> 93.4 µM

**Q:** Specify reported TGI for the molecule shown: `N#CCCN(CCC#N)c1ccc(/C=C2\SC(=S)NC2=O)cc1Br`
**A:** > 100 µM
